The measured values listed here are drawn from patent US8084470B2.

Hi there, I'd appreciate the recorded pEC50 for every entry that follows.
- subject of test: hKCNQ2/3 (Homo sapiens, UniProt O43525+O43526)
- test: Fluorescence assay using a voltage sensitive dye
- Format: cell-based
- Set-up: expressed in transfected cells; host or cells: CHO-K1
One number for each entry, as −log10 of the molar value.

smiles_notation=O=C(NCCC1CCCCC1)c1cccnc1SCCS(=O)(=O)c1ccccc1 reported_result=5.93

The following compounds each have a reported value; give each one's pEC50.
1. COc1ccc(CNC(=O)c2cccnc2SCCS(=O)(=O)c2ccccc2)cc1
2. CN(Cc1ccccc1)C(=O)c1cccnc1SCCS(=O)(=O)c1ccccc1
3. O=C(NCc1cccs1)c1cccnc1SCCS(=O)(=O)c1cccc(F)c1
4. Cc1ccc(S(=O)(=O)CCSc2ncccc2C(=O)NCc2ccc(F)c(F)c2)cc1
5. O=C(NCc1ccccc1F)c1cccnc1SCCS(=O)(=O)c1ccccc1

Data returned:
5.19
4.78
6.73
5.67
5.93

Provide pEC50 for all items below, preserving their order.
1. O=C(NCc1ccc(SC(F)(F)F)cc1)c1cccnc1SCCS(=O)(=O)c1ccccc1
2. O=C(NCc1ccco1)c1cccnc1SCCS(=O)(=O)c1ccccc1
3. O=C(NCc1cccs1)c1cccnc1SCCS(=O)(=O)c1ccc(F)cc1
4. Cc1cccc(CNC(=O)c2cccnc2SCCS(=O)(=O)c2ccccc2)c1
5. Cc1ccc(S(=O)(=O)CCSc2ncccc2C(=O)NCc2cccc(C)c2)cc1

Data returned:
1: 6.06; 2: 5.36; 3: 6.30; 4: 6.24; 5: 5.65

====

Would you mind telling me the reported MAN rel eff @ 10 μm [RG = 1] of each entry?
- subject of test: hKCNQ2/3 (Homo sapiens, UniProt O43525+O43526)
- test: Voltage clamp (patch-clamp) measurements
- Format: cell-based
- Design: expressed in transfected cells; host or cells: CHO-K1 (stably transfected)
- experimental setup: test substance 10 μM at −40 mV; increase in current standardized to retigabine (10 μM) effect = 1
One number for each entry.

Worked examples, 3 molecules total:
smiles_notation=Cc1ccc(CNC(=O)c2cccnc2SCCS(=O)(=O)c2ccccc2)o1 reported_result=0.81
smiles_notation=O=C(NCCC1CCCCC1)c1cccnc1SCCS(=O)(=O)c1ccccc1 reported_result=0.47
smiles_notation=O=C(NCC1CCCCC1)c1cccnc1SCCS(=O)(=O)c1ccccc1 reported_result=1.06

Here are 2 molecules. What values of MAN rel eff @ 10 μm [RG = 1] were reported for them?
1. Cc1cccc(CNC(=O)c2cccnc2SCCS(=O)(=O)c2ccccc2)c1
2. O=C(NCc1ccccn1)c1cccnc1SCCS(=O)(=O)c1cccc(C(F)(F)F)c1

Data returned:
1: 0.4; 2: 0.79

====

- subject of test: hKCNQ2/3 (Homo sapiens, UniProt O43525+O43526)
- test: Fluorescence assay using a voltage sensitive dye
- Type: cell-based
- Set-up: expressed in transfected cells; host or cells: CHO-K1
What EC50 was measured for each of the following?
Give bare numbers, in µM.

compound="Cc1ccc(CNC(=O)c2cccnc2SCCS(=O)(=O)c2ccccc2)o1 [Example 61]" subject_of_test="hKCNQ2/3 (Homo sapiens, UniProt O43525+O43526)" reported_result=3.47
compound="O=C(NCc1cccc(Cl)c1)c1cccnc1SCCS(=O)(=O)c1ccccc1 [Example 25]" subject_of_test="hKCNQ2/3 (Homo sapiens, UniProt O43525+O43526)" reported_result=1.28
compound="O=C(NCc1ccc(Cl)c(Cl)c1)c1cccnc1SCCS(=O)(=O)c1ccccc1 [Example 19]" subject_of_test="hKCNQ2/3 (Homo sapiens, UniProt O43525+O43526)" reported_result=1.27
compound="Cc1ccc(S(=O)(=O)CCSc2ncccc2C(=O)NCc2ccccc2F)cc1 [Example 43]" subject_of_test="hKCNQ2/3 (Homo sapiens, UniProt O43525+O43526)" reported_result=1.97

Please look at the items below and tell me EC50 for each one, in order.
1. Cc1ccc(S(=O)(=O)CCSc2ncccc2C(=O)NCc2cccc(Cl)c2)cc1 [Example 51]
2. Cc1ccc(S(=O)(=O)CCSc2ncccc2C(=O)NCc2ccc(F)cc2)cc1 [Example 49]
3. Cc1ccc(S(=O)(=O)CCSc2ncccc2C(=O)NCc2cccc(C(F)(F)F)c2)cc1 [Example 52]
4. O=C(NCc1ccc(F)cc1)c1cccnc1SCCS(=O)(=O)c1ccccc1 [Example 20]
5. O=C(NCc1cccs1)c1cccnc1SCCS(=O)(=O)c1ccccc1 [Example 89]
6. Cc1ccc(S(=O)(=O)CCSc2ncccc2C(=O)NCc2cc(F)cc(F)c2)cc1 [Example 41]

Data returned:
[4.12, 7.6, 1.82, 1.28, 2.28, 2.39]

Items follow; give EC50 for each.
1. O=C(NCc1ccc(F)c(F)c1)c1cccnc1SCCS(=O)(=O)c1ccccc1 [Example 12]
2. O=C(NCc1cccs1)c1cccnc1SCCSc1ccccc1 [Example 109]
3. CC(NC(=O)c1cccnc1SCCS(=O)(=O)c1ccccc1)c1cccc(C(F)(F)F)c1 (stereo not drawn) [Example 57]
4. CN(Cc1cccc(Br)c1)C(=O)c1cccnc1SCCS(=O)(=O)c1ccccc1 [Example 13]

Data returned:
[1.8, 0.075, 5.7, 1.4]

Hi team, please reply with EC50 for each item in this list.
1. Cc1ccc(CNC(=O)c2cccnc2SCCS(=O)(=O)c2ccccc2)cc1 [Example 5]
2. O=C(NCc1cc(F)cc(F)c1)c1cccnc1SCCS(=O)(=O)c1ccccc1 [Example 8]
3. Cc1ccc(S(=O)(=O)CCSc2ncccc2C(=O)NCc2cccs2)cc1 [Example 36]
4. O=C(NCc1cccs1)c1cccnc1SCCS(=O)(=O)c1ccc(Cl)cc1 [Example 99]

Data returned:
1. 1.86
2. 1.28
3. 4.11
4. 0.234

====

- subject of test: hKCNQ2/3 (Homo sapiens, UniProt O43525+O43526)
- test: Fluorescence assay using a voltage sensitive dye
- Assay type: cell-based
- Parameters: expressed in transfected cells; host or cells: CHO-K1
For each of the molecules below, state its EC50.
Answers are plain numbers, in nM.

# count of solved cases: 3
smiles_notation=CC(C)(C)CNC(=O)c1cccnc1SCCS(=O)(=O)c1ccccc1 subject_of_test="hKCNQ2/3 (Homo sapiens, UniProt O43525+O43526)" reported_result=9590
smiles_notation=O=C(NCc1cccs1)c1cccnc1SCCS(=O)(=O)c1ccc(C(F)(F)F)cc1 subject_of_test="hKCNQ2/3 (Homo sapiens, UniProt O43525+O43526)" reported_result=197
smiles_notation=O=C(NCc1ccccc1)c1cccnc1SCCS(=O)(=O)c1ccccc1 subject_of_test="hKCNQ2/3 (Homo sapiens, UniProt O43525+O43526)" reported_result=2340

Data request: Entry O=C(NCc1cccc(F)c1)c1cccnc1SCCS(=O)(=O)c1ccccc1 : reported EC50 = ?
Data returned: 2480
